The compounds listed here are annotated with their growth AUC.
- Tested on: Clostridium difficile
- measurement.description: growth AUC relative to DMSO control (median of replicates) (fraction); higher = more growth (less inhibition), active = hit call of the paper
- condition.label: 20 µM; 24 h
property: growth AUC

INSERT INTO measurements (compound, data_value) VALUES
  ('CSc1nnc(C(C)(C)C)c(=O)n1/N=C/C(C)C', 1.01),
  ('COC(=O)c1c(Cl)nn(C)c1S(=O)(=O)NC(=O)Nc1nc(OC)cc(OC)n1', 1),
  ('COC(=O)C(C)Oc1ccc(Cl)cc1C (centres undefined)', 0.974),
  ('CSC(=O)c1cccc2nnsc12', 1);

---

Attribute: growth AUC
- System: Bacteroides uniformis
- measurement.description: growth AUC relative to DMSO control (median of replicates) (fraction); higher = more growth (less inhibition), active = hit call of the paper
- condition.label: 20 µM; 24 h
property: growth AUC

INSERT INTO assay_data (structure_smiles, property, data_value) VALUES
  ('CN(C)C(=O)SCCCCOc1ccccc1', 'growth AUC', 0.992),
  ('CCOc1nc(F)cc2nc(S(=O)(=O)Nc3c(Cl)cccc3C(=O)OC)nn12', 'growth AUC', 0.987),
  ('O=C1NC(=O)c2ccccc21', 'growth AUC', 1.01);

---

Each entry below lists one item and its recorded growth AUC value.
- Test system: Escherichia coli IAI1
- measurement.description: growth AUC relative to DMSO control (median of replicates) (fraction); higher = more growth (less inhibition), active = hit call of the paper
- condition.label: 20 µM; 24 h
property: growth AUC

INSERT INTO measurements (compound, data_value) VALUES
  ('C[C@@]1(c2ccccc2)NC(=O)N(Nc2ccccc2)C1=O', 1.01),
  ('CC(C)N(C(=O)C(=O)O)c1ccc(F)cc1', 1.02),
  ('COC1CCC2(CC1)NC(=O)C(c1cc(C)ccc1C)=C2O (configuration not stated)', 1.02),
  ('CCc1cccc(C)c1N(C(=O)C(=O)O)C(C)COC (configuration not stated)', 0.987),
  ('Nc1nc2ccccc2[nH]1', 0.986),
  ('COC(=O)c1ccccc1S(=O)(=O)NC(=O)Nc1nc(OC(F)F)cc(OC(F)F)n1', 1.01),
  ('CC(C)(CO)C(O)(CCc1ccc(Cl)cc1)Cn1cncn1 (configuration not stated)', 0.999),
  ('CNC(=O)/C(=N/OC)c1ccccc1COc1cc(C(=O)O)ccc1C', 0.978),
  ('Br[C@@H]1CC[C@H](Br)[C@H](Br)CC[C@@H](Br)[C@@H](Br)CC[C@H]1Br', 1),
  ('Cc1cc(C)cc(O)c1', 0.984),
  ('CCOC(=O)[C@@H](C)Oc1ccc(Oc2nc3ccc(Cl)cc3o2)cc1', 1),
  ('CN(C)C(=O)NC1CCCCCCC1', 0.998);

---

growth AUC values, listed per item
- System: Akkermansia muciniphila
- measurement.description: growth AUC relative to DMSO control (median of replicates) (fraction); higher = more growth (less inhibition), active = hit call of the paper
- condition.label: 20 µM; 24 h
property: growth AUC

INSERT INTO results (compound, property, data_value) VALUES
  ('Nc1nc2ccccc2[nH]1', 'growth AUC', 1.06),
  ('COC(=O)c1c(Cl)c(Cl)c(C(=O)OC)c(Cl)c1Cl', 'growth AUC', 0.846),
  ('FC(F)(F)c1cccc(C(c2ccccc2)(c2ccccc2)n2cncn2)c1', 'growth AUC', 0.852),
  ('C=CCOC(Cn1ccnc1)c1ccc(Cl)cc1Cl (stereo unspecified)', 'growth AUC', 0.972),
  ('CON=C(Cc1cccnc1)c1ccc(Cl)cc1Cl', 'growth AUC', 1.06),
  ('FC(F)(F)C(=NOCC1OCCO1)c1ccc(Cl)cc1', 'growth AUC', 1.16),
  ('CCOc1ccc2c(c1)C(C)=CC(C)(C)N2', 'growth AUC', 0.9),
  ('COc1ccccc1C(=O)NS(=O)(=O)c1ccc(C(=O)NC2CC2)cc1', 'growth AUC', 0.895),
  ('N#Cc1c(N)nc(NC2CC2)nc1N', 'growth AUC', 0.971),
  ('COc1cc(OC)nc(NC(=O)NS(=O)(=O)N(C)S(C)(=O)=O)n1', 'growth AUC', 0.951),
  ('COc1cccc(N(C)C(=S)Oc2cccc(C(C)(C)C)c2)n1', 'growth AUC', 0.871),
  ('CNC(=O)/C(=N/OC)c1ccccc1COc1cc(C(=O)O)ccc1C', 'growth AUC', 1.01),
  ('Cn1cc(C(=O)Nc2ccccc2-c2cc(F)c(F)c(F)c2)c(C(F)F)n1', 'growth AUC', 0.832),
  ('COC(=O)CC(NC(=O)[C@@H](NC(=O)OC(C)C)C(C)C)c1ccc(Cl)cc1 (stereo partly specified)', 'growth AUC', 1.08),
  ('NC1=C(Cl)C(=O)c2ccccc2C1=O', 'growth AUC', 0.886),
  ('CSc1nnc(C(C)(C)C)c(=O)n1/N=C/C(C)C', 'growth AUC', 0.944);

---

- System: Eubacterium rectale
- measurement.description: growth AUC relative to DMSO control (median of replicates) (fraction); higher = more growth (less inhibition), active = hit call of the paper
- condition.label: 20 µM; 24 h
Reported growth AUC by item:
property: growth AUC

INSERT INTO assay_data (molecule, property, data_value) VALUES
  ('CCCCC(CC)CN1C(=O)C2C(C1=O)[C@H]1C=C[C@@H]2C1 (mixture of isomers)', 'growth AUC', '0.93 (inactive)'),
  ('COC(=O)CSc1cc(N=c2sc(=O)n3n2CCCC3)c(F)cc1Cl', 'growth AUC', '1.12 (inactive)'),
  ('Nc1ccc(S(=O)(=O)Nc2cnc3ccccc3n2)cc1', 'growth AUC', '0.983 (inactive)'),
  ('CCOc1ccc(C2(C(=O)OC(C#N)c3cccc(Oc4ccccc4)c3)CC2(Cl)Cl)cc1 (stereo not given)', 'growth AUC', '1.06 (inactive)'),
  ('COc1cc(OC)nc(NC(=O)NS(=O)(=O)Nc2ccccc2C(=O)N(C)C)n1', 'growth AUC', '0.972 (inactive)');

---

- System: Roseburia intestinalis
- measurement.description: growth AUC relative to DMSO control (median of replicates) (fraction); higher = more growth (less inhibition), active = hit call of the paper
- condition.label: 20 µM; 24 h
property: growth AUC

INSERT INTO results (compound, property, data_value) VALUES
  ('C=CCc1ccc(OC)c(OC)c1', 'growth AUC', 1.03),
  ('N#Cc1c(N)nc(NC2CC2)nc1N', 'growth AUC', 0.999),
  ('CC(C)(SC(=O)N1CCCCC1)c1ccccc1', 'growth AUC', 1.05),
  ('O=C(O)[C@@H](S)[C@@H](S)C(=O)O', 'growth AUC', 1),
  ('CC(C)OC(=O)c1cc(C(=O)OC(C)C)cc([N+](=O)[O-])c1', 'growth AUC', 0.974),
  ('O=S(Cc1ccc(Cl)cc1)c1ccc(Cl)cc1 (centres undefined)', 'growth AUC', 1.01),
  ('Cc1[nH]oc(=O)c1N=Nc1ccccc1Cl', 'growth AUC', 0.938),
  ('O=C=NC1CCC(CC2CCC(N=C=O)CC2)CC1 (centres undefined)', 'growth AUC', 1.06),
  ('CCNc1nc(N)nc(Cl)n1', 'growth AUC', 1.01),
  ('CCNc1nc(NC(C)(C)C)[nH]c(=O)n1', 'growth AUC', 1.03),
  ('CON=C(Cc1cccnc1)c1ccc(Cl)cc1Cl', 'growth AUC', 1.05),
  ('Nc1cc(Cl)nc(C(=O)O)c1Cl', 'growth AUC', 1.01),
  ('Cl.NCCO/C=C/[C@H](N)C(=O)O', 'growth AUC', 0.975),
  ('Cc1cccc(C)c1N(CC(=O)O)C(=O)CS(=O)(=O)[O-].[Na+]', 'growth AUC', 0.979),
  ('O=S(=O)(Oc1ccc(Cl)cc1Cl)c1ccccc1', 'growth AUC', 0.974),
  ('CC(C)CCCCCCc1ccc(O)cc1', 'growth AUC', 0.958),
  ('O=[N+]([O-])c1ccc(O)cc1', 'growth AUC', 1.14),
  ('O=S(=O)(Oc1ccc(Cl)cc1)c1ccccc1', 'growth AUC', 0.988),
  ('COC(=O)C(C)Oc1cc(Cl)c(Cl)cc1Cl (centres undefined)', 'growth AUC', 1.01);

---

- Tested on: Escherichia coli ED1a
- measurement.description: growth AUC relative to DMSO control (median of replicates) (fraction); higher = more growth (less inhibition), active = hit call of the paper
- condition.label: 20 µM; 24 h
The following compounds are shown together with reported growth AUC values.
property: growth AUC

INSERT INTO results (compound, property, data_value) VALUES
  ('CCCCC(CC)COC(=O)COc1cc(Cl)c(Cl)cc1Cl (stereo not given)', 'growth AUC', 0.99),
  ('CC(C)OC(=O)N[C@H](C(=O)N[C@H](C)c1nc2ccc(F)cc2s1)C(C)C', 'growth AUC', 0.989),
  ('COC(=O)c1ccc(CNS(C)(=O)=O)cc1S(=O)(=O)NC(=O)Nc1nc(OC)cc(OC)n1', 'growth AUC', 1.02),
  ('c1ccc(Nc2ccccc2)cc1', 'growth AUC', 0.986),
  ('CCOC(=O)/C(Cl)=C/c1cc(N2C(=O)C3=C(CCCC3)C2=O)ccc1Cl', 'growth AUC', 1);
